- Tested on: mouse splenic lymphocyte
- Assay protocol: In vitro mouse splenic lymphocyte-proliferation-stimulating effect (3H-TdR uptake)
- Assay type: cell-based, mouse (BDF1 female)
- Measurement setup: Mus musculus, Splenic lymphocyte, 48 h; 10^-3 μg/ml, 2 days; read-out: Uptake of 3H-TdR (% of control), splenic lymphocytes
// reported activity at 0.001 µg/mL per item
Record the result as number plus unit.

Field activity at 0.001 µg/mL (system: mouse splenic lymphocyte) for entry CCCCCCCCCCCCCCCCCCCCCCCCCC(=O)N[C@@H](CO[C@H]1O[C@H](CO)[C@@H](O[C@H]2O[C@H](CO)[C@@H](O)[C@H](O)[C@H]2O)[C@H](O)[C@H]1O)[C@H](O)[C@H](O)CCCCCCCCCCCCCC [Compound 35] = 538%

Field activity at 0.001 µg/mL (system: mouse splenic lymphocyte) for entry CCCCCCCCCCCCCCCCCCCCCC[C@@H](O)C(=O)N[C@@H](CO[C@H]1O[C@H](CO)[C@H](O)[C@H](O[C@H]2O[C@H](CO)[C@H](O)[C@H](O)[C@H]2NC(C)=O)[C@H]1O[C@H]1O[C@H](CO)[C@@H](O)[C@H](O)[C@H]1O)[C@H](O)[C@H](O)CCCCCCCCCCCC [Compound 1] = 184%

Field activity at 0.001 µg/mL (system: mouse splenic lymphocyte) for entry CCCCCCCCCCCCCCCCCCCCCC[C@@H](O)C(=O)N[C@@H](CO[C@H]1O[C@H](CO)[C@H](O)[C@H](O[C@@H]2O[C@@H]([C@H](O)CO)[C@H](O)[C@H]2O)[C@H]1O)[C@H](O)[C@H](O)CCCCCCCCCCCCC [Compound 14] = 252%

Now look at this entry.
Field activity at 0.001 µg/mL (system: mouse splenic lymphocyte) for entry CCCCCCCCCCCCCCCCCCCCCCCCCC(=O)N[C@@H](CO[C@H]1O[C@H](CO[C@H]2O[C@H](CO)[C@H](O)[C@H](O)[C@H]2O)[C@@H](O)[C@H](O)[C@H]1O)[C@H](O)[C@H](O)CCCCCCCCCCCCCC [Compound 31] = 744%

---

// reported activity at 0.001 µg/mL per item
- System: mouse splenic lymphocyte
- Assay protocol: In vitro mouse splenic lymphocyte-proliferation-stimulating effect (3H-TdR uptake)
- Type: cell-based, mouse (BDF1 female)
- Measurement setup: Mus musculus, Splenic lymphocyte, 48 h; 10^-3 μg/ml, 2 days; read-out: Uptake of 3H-TdR (% of control), splenic lymphocytes

Reference set (3 entries):
Field activity at 0.001 µg/mL (system: mouse splenic lymphocyte) for entry CCCCCCCCCCCCCCCCCCCCCC[C@@H](O)C(=O)N[C@@H](CO[C@H]1O[C@H](CO)[C@H](O)[C@H](O[C@@H]2O[C@@H]([C@H](O)CO)[C@H](O)[C@H]2O)[C@H]1O)[C@H](O)[C@H](O)CCCCCCCCCCC(C)C = 227%

Field activity at 0.001 µg/mL (system: mouse splenic lymphocyte) for entry CCCCCCCCCCCCCCCCCCCCC[C@@H](O)C(=O)N[C@@H](CO[C@H]1O[C@H](CO)[C@H](O)[C@H](O[C@@H]2O[C@@H]([C@H](O)CO)[C@H](O)[C@H]2O)[C@H]1O)[C@H](O)[C@H](O)CCCCCCCCCCCC = 116%

Field activity at 0.001 µg/mL (system: mouse splenic lymphocyte) for entry CCCCCCCCCCCCCCCCCCCCCC[C@@H](O)C(=O)N[C@@H](CO[C@H]1O[C@H](CO)[C@H](O)[C@H](O[C@H]2O[C@H](CO)[C@H](O)[C@H](O)[C@H]2NC(C)=O)[C@H]1O[C@H]1O[C@H](CO)[C@@H](O)[C@H](O)[C@H]1O)[C@H](O)[C@H](O)CCCCCCCCCCCCC = 270%

Now look at this entry.
Field activity at 0.001 µg/mL (system: mouse splenic lymphocyte) for entry CCCCCCCCCCCCCCCCCCCCCC[C@@H](O)C(=O)N[C@@H](CO[C@H]1O[C@H](CO)[C@H](O)[C@H](O[C@@H]2O[C@@H]([C@H](O)CO)[C@H](O)[C@H]2O)[C@H]1O)[C@H](O)[C@H](O)CCCCCCCCCCCC = 113%
